Cited source: PubChem BioAssay

Can you tell me inhibition for the items I'm about to list?
Procedure details: TLR3 IRF3 reporter activation blockers – cell-based, poly I:C stimulus, luciferase, 10K MLSCN set, primary screen (AID 602277)
Condition: HEK293-TLR3 RL24 IRF3 luciferase reporter, at 10 µM, stronger effect = higher value
Unit % implied. Number only.

## Input Reported inhibition for C=CCOc1nc(N2CCCC2)nc(N2CCCC2)n1 : what is it?
## Output 14.3

## Input Reported inhibition for c1coc(-c2nnc(-c3cccs3)o2)c1 : what is it?
## Output -87.8

## Input Reported inhibition for CCOC(=O)c1cc2c(=O)n3cccc(C)c3nc2n(CCc2ccccc2)c1=N : what is it?
## Output 28.5

## Input Reported inhibition for c1ccc(Cn2nnnc2C(c2ccccn2)N2CCOCC2)cc1 (centres undefined) : what is it?
## Output 2.75

## Input Reported inhibition for Nc1nonc1-c1noc(-c2ccccc2Br)n1 : what is it?
## Output -26.2

## Input Reported inhibition for COC(=O)CCCCCNc1ccc(C(=O)OC)cc1N : what is it?
## Output 18.3

## Input Reported inhibition for CCOC(=O)Cn1nnnc1CN(Cc1ccc(OC)cc1)Cc1cc2cc(C)cc(C)c2[nH]c1=O : what is it?
## Output -1.09

## Input Reported inhibition for CCOC(=O)Cc1nn2c(=O)cc(C)nc2s1 : what is it?
## Output 11.1

## Input Reported inhibition for Cc1ccc(-c2nnc3ccc(SCC(=O)NCc4ccco4)nn23)cc1 : what is it?
## Output 7.2

## Input Reported inhibition for c1nc(NCC2CCCO2)c2[nH]cnc2n1 (centres undefined) : what is it?
## Output 16.7

## Input Reported inhibition for COC(=O)C1=C(C)Nc2nnnn2C1c1ccc(Cl)cc1Cl (centres undefined) : what is it?
## Output 19.3

## Input Reported inhibition for O=C(c1cc2ccccc2oc1=O)N1CCSC1c1ccco1 (centres undefined) : what is it?
## Output 22

## Input Reported inhibition for COC(=O)CCN1CCC(C(N)=O)CC1 : what is it?
## Output 6.83

## Input Reported inhibition for Cc1cc(NS(=O)(=O)c2ccccc2)n(-c2ccccc2)n1 : what is it?
## Output 28

## Input Reported inhibition for COc1ccc(N(CC(=O)N2c3ccccc3CC2C)S(=O)(=O)c2c(C)noc2C)cc1 (centres undefined) : what is it?
## Output 30.9

## Input Reported inhibition for CCn1c(CC(=O)Nc2cccc(OC)c2)nnc1SCC(=O)Nc1nccs1 : what is it?
## Output 21.5

## Input Reported inhibition for Cc1ccc(S(=O)(=O)N(CC(=O)N2CCC(C(N)=O)CC2)c2cccc(C(F)(F)F)c2)cc1 : what is it?
## Output 25.1

## Input Reported inhibition for Cc1ccc(S(=O)(=O)N(C)Cc2cc3ccccc3[nH]c2=O)cc1 : what is it?
## Output 70.5

## Input Reported inhibition for Cc1ccccc1CN1CCN(CC(=O)NCc2ccco2)C1=O : what is it?
## Output 22.7

## Input Reported inhibition for CC(=O)c1nnn(-c2nc(N3CCCC3)nc(N(c3ccccc3)c3ccccc3)n2)c1C : what is it?
## Output 26.9

## Input Reported inhibition for O=C(COc1ccccc1Cl)N1CCCC1 : what is it?
## Output -18.4

## Input Reported inhibition for Cc1nc2ccccc2c(=O)n1NC(=O)c1ccc(F)cc1Cl : what is it?
## Output 8.86

## Input Reported inhibition for CC1CCN(S(=O)(=O)c2ccc(NC(=O)CSc3nnnn3C)cc2)CC1 : what is it?
## Output 20.7

## Input Reported inhibition for CCOC(=O)c1sc(NC(=O)CSc2nnc(-c3ccco3)n2CC)c(C(=O)OCC)c1C : what is it?
## Output -38.2
